# METHOD_DESCRIPTION: in vivo
# ASSAY_CONDITIONS: male, Sprague Dawley, rat, 50 mg/kg, 50 mg/kg per os, 24 h, read-out: Lung:Plasma Ratio
READOUT_NAME: Kp
Keep it simple and answer with nothing but the number.

Quote Kp reported for O=C(Nc1scc(C2CCc3ccccc3C2)c1C(=O)O)c1ccccc1 (stereo not shown) [dEF3122] please. 0.18

###

# Test system: influenza A H1N1 virus
# METHOD_DESCRIPTION: microbe, parasite or virus in culture
# ASSAY_CONDITIONS: H1N1, A549, read-out: Neuraminidase activity assay IC50
READOUT_NAME: IC50

- COMPOUND: "COc1ccc(C(=O)Nc2sc3c(c2C(=O)O)CCC(C)(C)C3)cc1OC [dEF2788]"
  IC50: "50 nM"
- COMPOUND: "O=C(Nc1scc(C2CCc3ccccc3C2)c1C(=O)O)c1ccccc1 (stereo not drawn) [dEF3122]"
  IC50: "3 nM"

Now look at this entry.
Quote IC50 reported for O=C(Nc1scc(C2CCc3ccccc3C2)c1C(=O)O)c1ccccc1 (racemic) [dEF2905] please. 18 nM
